System: C. glabrata ATCC 90030
applied conditions: strain K, echinocandin-susceptible; YPAD broth, 24 h, 30 °C, OD600 reduced by ≥75%
Starred links: 1 amine or outer side, 2 acyl side, 3 side chain; linkers in the order of their positions; H or OH if unused. Positions of bridges follow the written chain, without caps; N, C: chain ends. Non-standard residues stand in square brackets, D forms with d. Residues, ends and D or L forms follow the SMILES beside them. *: point of attachment. pTerphenylCO(4''-OnC5H11) = CCCCCOc1ccc(-c2ccc(-c3ccc(C(=O)*)cc3)cc2)cc1; Orn(4R-OH,5R-OH) = O=C([C@H](C[C@@H](O)[C@@H](O)N[*:3])N[*:1])[*:2]; hTyr(3S-OH,4S-OH) = N[C@H](C(=O)O)[C@H](O)[C@@H](O)c1ccc(O)cc1; Pro(3S-OH,4S-Me) = C[C@H]1CN[C@H](C(=O)O)[C@H]1O; Hyp = O=C(O)[C@@H]1C[C@@H](O)CN1
Assignment: determine reported MIC for the given compounds.
One number for each entry, in µg/mL.

I need MIC for every entry listed below, if you could help.
1. CCCCCOc1ccc(-c2ccc(-c3ccc(C(=O)N[C@H]4C[C@@H](O)[C@@H](O)NC(=O)[C@@H]5[C@@H](O)[C@@H](C)CN5C(=O)[C@H]([C@@H](C)O)NC(=O)[C@H]([C@H](O)[C@@H](O)c5ccc(O)cc5)NC(=O)[C@@H]5C[C@@H](O)CN5C(=O)[C@H]([C@@H](C)O)NC4=O)cc3)cc2)cc1 [ANF, anidulafungin, reference compound] ({pTerphenylCO(4''-OnC5H11)}-[Orn(4R-OH,5R-OH)]T[Hyp][hTyr(3S-OH,4S-OH)]T[Pro(3S-OH,4S-Me)]; lactam 1-C)
2. CC[C@H](C)C[C@H](C)CCCCCCCCC(=O)N[C@H]1C[C@@H](O)[C@@H](NCCN)NC(=O)[C@@H]2[C@@H](O)CCN2C(=O)[C@H]([C@H](O)CCN)NC(=O)[C@H]([C@H](O)[C@@H](O)c2ccc(OCc3cn(CCCNc4ccc([N+](=O)[O-])c5nonc45)nn3)cc2)NC(=O)[C@@H]2C[C@@H](O)CN2C(=O)[C@H]([C@@H](C)O)NC1=O
3. CCCCCOc1ccc(-c2ccc(-c3ccc(C(=O)N[C@H]4C[C@@H](O)[C@@H](OCCc5cn(CCCNc6ccc([N+](=O)[O-])c7nonc67)nn5)NC(=O)[C@@H]5[C@@H](O)[C@@H](C)CN5C(=O)[C@H]([C@@H](C)O)NC(=O)[C@H]([C@H](O)[C@@H](O)c5ccc(O)cc5)NC(=O)[C@@H]5C[C@@H](O)CN5C(=O)[C@H]([C@@H](C)O)NC4=O)cc3)cc2)cc1

1: 0.016; 2: 4; 3: 0.5

====

Tested on: C. albicans T-2068 (DP-C42)
applied conditions: strain G, echinocandin resistant FKS mutation; YPAD broth, 24 h, 30 °C, OD600 reduced by ≥75%
Starred links: 1 amine or outer side, 2 acyl side, 3 side chain; linkers in the order of their positions; H or OH if unused. Positions of bridges follow the written chain, without caps; N, C: chain ends. Non-standard residues stand in square brackets, D forms with d. Residues, ends and D or L forms follow the SMILES beside them. *: point of attachment. pTerphenylCO(4''-OnC5H11) = CCCCCOc1ccc(-c2ccc(-c3ccc(C(=O)*)cc3)cc2)cc1; Orn(4R-OH,5R-OH) = O=C([C@H](C[C@@H](O)[C@@H](O)N[*:3])N[*:1])[*:2]; hTyr(3S-OH,4S-OH) = N[C@H](C(=O)O)[C@H](O)[C@@H](O)c1ccc(O)cc1; Pro(3S-OH,4S-Me) = C[C@H]1CN[C@H](C(=O)O)[C@H]1O; Hyp = O=C(O)[C@@H]1C[C@@H](O)CN1
Provide the reported MIC of each item.

Here are 2 molecules together with their reported answers.
Item: CCCCCOc1ccc(-c2ccc(-c3ccc(C(=O)N[C@H]4C[C@@H](O)[C@@H](O)NC(=O)[C@@H]5[C@@H](O)[C@@H](C)CN5C(=O)[C@H]([C@@H](C)O)NC(=O)[C@H]([C@H](O)[C@@H](O)c5ccc(O)cc5)NC(=O)[C@@H]5C[C@@H](O)CN5C(=O)[C@H]([C@@H](C)O)NC4=O)cc3)cc2)cc1 [ANF, anidulafungin, reference compound] ({pTerphenylCO(4''-OnC5H11)}-[Orn(4R-OH,5R-OH)]T[Hyp][hTyr(3S-OH,4S-OH)]T[Pro(3S-OH,4S-Me)]; lactam 1-C) | MIC: 4 µg/mL

So for `CCCCCOc1ccc(-c2ccc(-c3ccc(C(=O)N[C@H]4C[C@@H](O)[C@@H](OCCc5cn(CCCNc6ccc([N+](=O)[O-])c7nonc67)nn5)NC(=O)[C@@H]5[C@@H](O)[C@@H](C)CN5C(=O)[C@H]([C@@H](C)O)NC(=O)[C@H]([C@H](O)[C@@H](O)c5ccc(O)cc5)NC(=O)[C@@H]5C[C@@H](O)CN5C(=O)[C@H]([C@@H](C)O)NC4=O)cc3)cc2)cc1` , the logged MIC turned out to be > 64 µg/mL

Now, please, on to the next molecule.
The measured MIC associated with CC[C@H](C)C[C@H](C)CCCCCCCCC(=O)N[C@H]1C[C@@H](O)[C@@H](NCCN)NC(=O)[C@@H]2[C@@H](O)CCN2C(=O)[C@H]([C@H](O)CCN)NC(=O)[C@H]([C@H](O)[C@@H](O)c2ccc(O)cc2)NC(=O)[C@@H]2C[C@@H](O)CN2C(=O)[C@H]([C@@H](C)O)NC1=O [CSF, caspofungin, reference compound] reads 16 µg/mL

====

Tested on: C. albicans T-2068 (DP-C42)
applied conditions: strain G, echinocandin resistant FKS mutation; YPAD broth, 24 h, 30 °C, OD600 reduced by ≥75%
Starred links: 1 amine or outer side, 2 acyl side, 3 side chain; linkers in the order of their positions; H or OH if unused. Positions of bridges follow the written chain, without caps; N, C: chain ends. Non-standard residues stand in square brackets, D forms with d. Residues, ends and D or L forms follow the SMILES beside them. *: point of attachment. X1 = O=C([C@@H](N[*:1])[C@H](O)[C@@H](O)c1ccc(OCc2cn(CCCNc3ccc([N+](=O)[O-])c4nonc34)nn2)cc1)[*:2]; Orn(4R-OH,5R-OCH2CH2NMe3+) = C[N+](C)(C)CCO[C@@H](N[*:3])[C@H](O)C[C@H](N[*:1])C(=O)[*:2]; pTerphenylCO(4''-OnC5H11) = CCCCCOc1ccc(-c2ccc(-c3ccc(C(=O)*)cc3)cc2)cc1; hTyr(3S-OH,4S-OH) = N[C@H](C(=O)O)[C@H](O)[C@@H](O)c1ccc(O)cc1; Pro(3S-OH,4S-Me) = C[C@H]1CN[C@H](C(=O)O)[C@H]1O; Hyp = O=C(O)[C@@H]1C[C@@H](O)CN1
property: MIC

Example entries begin here.
Reported MIC for CCCCCOc1ccc(-c2ccc(-c3ccc(C(=O)N[C@H]4C[C@@H](O)[C@@H](OCC[N+](C)(C)C)NC(=O)[C@@H]5[C@@H](O)[C@@H](C)CN5C(=O)[C@H]([C@@H](C)O)NC(=O)[C@H]([C@H](O)[C@@H](O)c5ccc(OCc6cn(CCCNc7ccc([N+](=O)[O-])c8nonc78)nn6)cc5)NC(=O)[C@@H]5C[C@@H](O)CN5C(=O)[C@H]([C@@H](C)O)NC4=O)cc3)cc2)cc1 [Probe 6] ({pTerphenylCO(4''-OnC5H11)}-[Orn(4R-OH,5R-OCH2CH2NMe3+)]T[Hyp][X1]T[Pro(3S-OH,4S-Me)]; lactam 1-C) was > 64 µg/mL

Value of MIC reported for the compound CCCCCOc1ccc(-c2ccc(-c3ccc(C(=O)N[C@H]4C[C@@H](O)[C@@H](OCC[N+](C)(C)C)NC(=O)[C@@H]5[C@@H](O)[C@@H](C)CN5C(=O)[C@H]([C@@H](C)O)NC(=O)[C@H]([C@H](O)[C@@H](O)c5ccc(O)cc5)NC(=O)[C@@H]5C[C@@H](O)CN5C(=O)[C@H]([C@@H](C)O)NC4=O)cc3)cc2)cc1 [RZF, rezafungin, reference compound] ({pTerphenylCO(4''-OnC5H11)}-[Orn(4R-OH,5R-OCH2CH2NMe3+)]T[Hyp][hTyr(3S-OH,4S-OH)]T[Pro(3S-OH,4S-Me)]; lactam 1-C) is 4 µg/mL

Could you now look at the following compound, please?
// MIC value for `CC[C@H](C)C[C@H](C)CCCCCCCCC(=O)N[C@H]1C[C@@H](O)[C@@H](NCCN)NC(=O)[C@@H]2[C@@H](O)CCN2C(=O)[C@H]([C@H](O)CCN)NC(=O)[C@H]([C@H](O)[C@@H](O)c2ccc(OCc3cn(CCCNc4ccc([N+](=O)[O-])c5nonc45)nn3)cc2)NC(=O)[C@@H]2C[C@@H](O)CN2C(=O)[C@H]([C@@H](C)O)NC1=O` : 64 µg/mL
